Reference source: patent US6495699B2

# melting point listing for each entry below

Would you please look over these solved cases?
> print(dat)
                                   compound       reported.result
1  CC(C)(C)[C@@H](CO)NC(=O)[C@H](CC(=O)NO)n1cnc(-c2ccc(-c3ccccc3)cc2)c1 [Example 19(d)]     134.5 to 136.5 °C
2  CCOC(=O)c1ccc(NC(=O)[C@H](CC(C)C)NC(=O)[C@@H](CC(=O)O)n2cccc2)cc1 [Example 1(n)]         111 to 114 °C
3  O=C(O)C[C@H](C(=O)N[C@H]1Cc2cn(c3ccccc23)CCOCCNC1=O)n1ccc(-c2ccc(-c3ccncc3)cc2)c1 [Example 7(a)]       > 172 °C (dec.)
4  COC(=O)c1ccc(NC(=O)[C@H](CC(C)C)NC(=O)[C@@H](CC(=O)O)c2ccsc2)cc1 [Example 17(b)]         199 to 201 °C
5  CCC[C@H](C(=O)O)[C@H](C(=O)N[C@H](CO)Cc1ccccc1)n1ccc(-c2ccc(-c3ccccc3)cc2)c1 [Example 10(a)]  179 to 181 °C (dec.)
6  CC(C)(C)[C@H](NC(=O)C(CC(=O)O)c1ccsc1)C(=O)Nc1ccncc1 (stereo in doubt) [Example 17(c)]         205 °C (dec.)
7  CNC(=O)[C@@H](NC(=O)[C@@H](CC(=O)O)n1ccc(-c2ccc(-c3ccc(C#N)cc3)cc2)c1)C(C)(C)C [Example 5(c)]         142 to 144 °C
8  NC(=O)c1ccc(-c2ccc(-c3ccn([C@H](CC(=O)O)C(=O)N[C@H](CO)Cc4ccccc4)c3)cc2)cc1 [Example 4(b)]         218 to 220 °C

Given the entry O=C(C[C@H](C(=O)N[C@H]1Cc2cn(c3ccccc23)CCCCCCNC1=O)n1cccc1)NO [Example 8(c)] , report its measured melting point.
158 to 165 °C

Could you do the same for N#Cc1ccc(-c2ccc(-c3ccn([C@H](CC(=O)O)C(=O)N[C@H](CO)Cc4ccccc4)c3)cc2)cc1 [Example 4(a)] , please?
189 to 192 °C

Could you do the same for O=C(O)C[C@H](C(=O)N[C@H]1Cc2cn(c3ccccc23)CCCCCCNC1=O)n1cccc1 [Example 1(o)] , please?
139 to 144 °C

Could you do the same for CC(C)(O)C(CO)NC(=O)[C@@H](CC(=O)O)n1ccc(-c2ccc(-c3ccccc3)cc2)c1 (stereo in doubt) [Example 1(i)] , please?
150 to 152 °C

Could you do the same for CNC(=O)[C@@H](NC(=O)[C@@H](CC(=O)O)n1ccc(-c2ccncc2)c1)C(C)(C)C [Example 1(d)] , please?
145 to 148 °C

Could you do the same for COC(=O)c1ccc(NC(=O)[C@H](CC(C)C)NC(=O)[C@@H](CC(=O)O)n2ccc(-c3ccc(-c4ccccc4)cc3)c2)cc1 [Example 1(k)] , please?
209 to 211 °C
